test system: HaCaT cells; assay: Relief of 5-FU proliferative toxicity to HaCaT cells (CCK-8 cell survival); assay type: cell-based; conditions: Homo sapiens, HaCaT; increase vs Group of 5-FU; 5-FU 20 μM; compound 1 μM; 48 h; read-out: Cell Survival Rate
Provide the reported activation at 1 µM of each item.

activation at 1 µM lookup needed for Cc1cn([C@H]2C[C@H](OC(=O)NC3CC3)[C@@H](COC(=O)NC3CC3)O2)c(=O)[nH]c1=O , thanks.
13 to 20%

activation at 1 µM lookup needed for Cc1cn([C@H]2C[C@H](OC(=O)C3CC3)[C@@H](COC(=O)C3CC3)O2)c(=O)[nH]c1=O , thanks.
-10 to -3%

activation at 1 µM lookup needed for Cc1cn([C@H]2C[C@H](O)[C@@H](COC(=O)OCc3ccccc3)O2)c(=O)[nH]c1=O , thanks.
35 to 45%

activation at 1 µM lookup needed for CC(=O)OC[C@H]1O[C@@H](n2cc(C)c(=O)[nH]c2=O)C[C@@H]1O , thanks.
13 to 18%

activation at 1 µM lookup needed for Cc1cn([C@H]2C[C@H](OC(=O)NC3CCCC3)[C@@H](COC(=O)NC3CCCC3)O2)c(=O)[nH]c1=O , thanks.
0 to 5%

activation at 1 µM lookup needed for Cc1cn([C@H]2C[C@H](OC(=O)OC(C)(C)C)[C@@H](COC(=O)OC(C)(C)C)O2)c(=O)[nH]c1=O , thanks.
2 to 7%

activation at 1 µM lookup needed for Cc1cn([C@H]2C[C@H](OC(=O)OCC(C)C)[C@@H](COC(=O)OCC(C)C)O2)c(=O)[nH]c1=O , thanks.
48 to 58%

activation at 1 µM lookup needed for CCC(=O)OC[C@H]1O[C@@H](n2cc(C)c(=O)[nH]c2=O)C[C@@H]1OC(=O)CC , thanks.
18 to 24%

activation at 1 µM lookup needed for CC(=O)O[C@H]1C[C@H](n2cc(C)c(=O)[nH]c2=O)O[C@@H]1CO , thanks.
14 to 18%

activation at 1 µM lookup needed for CCCC(=O)OC[C@H]1O[C@@H](n2cc(C)c(=O)[nH]c2=O)C[C@@H]1OC(=O)CCC , thanks.
27 to 34%

activation at 1 µM lookup needed for Cc1cn([C@H]2C[C@H](OC(=O)Cc3ccccc3)[C@@H](COC(=O)Cc3ccccc3)O2)c(=O)[nH]c1=O , thanks.
5 to 10%

activation at 1 µM lookup needed for Cc1cn([C@H]2C[C@H](OC(=O)C(C)(C)C)[C@@H](COC(=O)C(C)(C)C)O2)c(=O)[nH]c1=O , thanks.
27 to 35%

activation at 1 µM lookup needed for Cc1cn([C@H]2C[C@H](OC(=O)C(C)C)[C@@H](COC(=O)C(C)C)O2)c(=O)[nH]c1=O , thanks.
15 to 25%

activation at 1 µM lookup needed for CC(=O)NC[C@H]1O[C@@H](n2cc(C)c(=O)[nH]c2=O)C[C@@H]1OC(C)=O , thanks.
15 to 25%

activation at 1 µM lookup needed for Cc1cn([C@H]2C[C@H](O)[C@@H](COC(=O)OC3CC3)O2)c(=O)[nH]c1=O , thanks.
-5 to 0%

activation at 1 µM lookup needed for Cc1cn([C@H]2C[C@H](OC(=O)OC(C)C)[C@@H](COC(=O)OC(C)C)O2)c(=O)[nH]c1=O , thanks.
2 to 7%
